Numbers sourced from patent US20240336909.

- TESTED_SYSTEM: AxCT mask27 EpCAM H90.2 L043 version 1
READOUT_LABEL: Percent cleavage (%)
Report the value in % with no unit label.

# lookup: Percent cleavage of MMP-12 (protein) GPVWRKHYITYRINNYTPDMNREDVDYAIRKAFQVWSNVTPLKFSKINTGMADILVVFARGAHGDFHAFDGKGGILAHAFGPGSGIGGDAHFDEDEFWTTHSGGTNLFLTAVHEIGHSLGLGHSSDPKAVMFPTYKYVDINTFRLSADDIRGIQSLYGDPKENQRLPNPDNSEPALCDPNLSFDAVTTVGNKIFFFKDRFFWLKVSERPKTSVNLISSLWPTLPSGIEAAYEIEARNQVFLFKDDKYWLISNLRPEPNYPKSIHSFGFPNFVKKIDAAVFNPRFYRTYFFVDNQYWRYDERRQMMDPGYPKLITKNFQGIGPKIDAVFYSKNKYYYFFQGSNQFEYDFLLQRITKTLKSNSWFGC
0
